This collection of values is drawn from patent US4232035A.

Test system: root-knot nematode (Meloidogyne incognita var. acrita)
Assay: Nematode Test
Assay type: in vivo
Parameters: key: 1: severe galling; equal to untreated control; 2: moderate galling; 3: light galling; 4: very light galling; 5: no galling
Details: 10 ml of 500 parts per million formulation per jar of soil; cucumber indicator crop, approximately three weeks
outcome.measure: Nematodes, nematocidal toxicity rating (galling)
Form: value (number only, do not type unit).

- CC1OCSC1=NOC(=O)N(C)SSc1ccc(Cl)cc1 (stereo not drawn): 1
- CN(SSC(C)(C)C)C(=O)ON=C1CSCCS1: 1
- Cc1ccc(SSN(C)C(=O)ON=C2SCOC2C)cc1 (stereo not drawn): 1
- CN(SSc1ccc(Cl)cc1)C(=O)ON=C1SC(C)(C)C(=O)N1C: 1

Task item: Quick one: Nematodes, nematocidal toxicity rating (galling) for `CC(C)SSN(C)C(=O)ON=C1SC(C)(C)C(=O)N1C` ?
Reply: 1

Task item: Quick one: Nematodes, nematocidal toxicity rating (galling) for `CN(SSC1CCCCC1)C(=O)ON=C1SC(C)(C)C(=O)N1C` ?
Reply: 2

----------
Test system: two-spotted mite (Tetranychus urticae Koch)
Assay: Mite Foliage Spray Test
Type: in vivo
Design: key: A: excellent control; B: partial control; C: no control
Conditions: 500 parts per million foliage spray; six days
outcome.measure: Mite, pesticidal activity rating

* CN(SSC1CCCCC1)C(=O)ON=C1SC(C)(C)C(=O)N1C | C
* Cc1ccc(SSN(C)C(=O)ON=C2SCOC2C)cc1 (stereo not drawn) | A
* CC1OCSC1=NOC(=O)N(C)SSc1ccc(Cl)cc1 (stereo not drawn) | A
* CN(SSc1ccc(Cl)cc1)C(=O)ON=C1SC(C)(C)C(=O)N1C | C
* CN(SSC(C)(C)C)C(=O)ON=C1CSCCS1 | A

Turning to the following molecule.
Task item: Quick one: Mite, pesticidal activity rating for `Cc1ccc(SSN(C)C(=O)ON=C2SC(C)(C)C(=O)N2C)cc1` ?
Reply: C

----------
Tested on: two-spotted mite (Tetranychus urticae Koch)
Assay: Mite Foliage Spray Test
Type: in vivo
Parameters: key: A: excellent control; B: partial control; C: no control
Conditions: 500 parts per million foliage spray; six days
outcome.measure: Mite, pesticidal activity rating

# example entries with known answers
- CCCCCCCCSSN(C)C(=O)ON=C1SCOC1C (stereo not drawn): A
- CSSN(C)C(=O)ON=C1SCOC1C (stereo not drawn): A
- CCCCSSN(C)C(=O)ON=C1SC(C)(C)C(=O)N1C: A
- CC(C)SSN(C)C(=O)ON=C1SCOC1C (stereo not drawn): A
- CN(SSc1ccc(C(C)(C)C)cc1)C(=O)ON=C1SC(C)(C)C(=O)N1C: C
- CC(C)SSN(C)C(=O)ON=C1SC(C)(C)C(=O)N1C: C
- CC1OCSC1=NOC(=O)N(C)SSc1ccccc1 (stereo not drawn): A
- CN(SSC(C)(C)C)C(=O)ON=C1SC(C)(C)C(=O)N1C: C

Task item: Quick one: Mite, pesticidal activity rating for `CN(SSc1ccccc1)C(=O)ON=C1SC(C)(C)C(=O)N1C` ?
Reply: C

Task item: Quick one: Mite, pesticidal activity rating for `CN(SSc1ccc(C(C)(C)C)cc1)C(=O)ON=C1CSCCS1` ?
Reply: A

Task item: Quick one: Mite, pesticidal activity rating for `CN(SSC(C)(C)C)C(=O)ON=C1SCCS1` ?
Reply: C

Task item: Quick one: Mite, pesticidal activity rating for CC1OCSC1=NOC(=O)N(C)SSC(C)(C)C (stereo not drawn) ?
Reply: A
